- Test Name: mn = molality of the nth substance listed, in mol/kg
- Cond: 308.15 K; 100 kPa; Liquid; Vibrating tube method; m1 = 0.02
Property Measured: mass density (kg/m3)

{"Molecule": "COc1cc(-c2cc(-c3ccccc3O)[nH]c(=O)c2C#N)ccc1O + C[S+](C)[O-]", "Output Unit": "kg/m3", "mass density": 1087.16}
{"Molecule": "COc1cc(-c2cc(-c3ccccc3)[nH]c(=O)c2C#N)ccc1O + C[S+](C)[O-]", "Output Unit": "kg/m3", "mass density": 1086.78}
{"Molecule": "COc1cc(-c2cc(-c3ccc(O)cc3)[nH]c(=O)c2C#N)ccc1O + C[S+](C)[O-]", "Output Unit": "kg/m3", "mass density": 1087.19}
{"Molecule": "COc1cc(-c2cc(-c3ccc(Cl)cc3)[nH]c(=O)c2C#N)ccc1O + C[S+](C)[O-]", "Output Unit": "kg/m3", "mass density": 1087.47}

###

- Test Name: mn = molality of the nth substance listed, in mol/kg
- Cond: 298.15 K; 100 kPa; Liquid; Frequency=3 MHz; Sing-around technique in a fixed-path interferometer; m1 = 0.06
Property Measured: speed of sound (m/s)

{"Compound": "COc1cc(-c2cc(-c3ccc(Cl)cc3)[nH]c(=O)c2C#N)ccc1O + C[S+](C)[O-]", "speed of sound [m/s]": 1489.6}
{"Compound": "COc1cc(-c2cc(-c3ccccc3O)[nH]c(=O)c2C#N)ccc1O + C[S+](C)[O-]", "speed of sound [m/s]": 1490.2}
{"Compound": "COc1cc(-c2cc(-c3ccccc3)[nH]c(=O)c2C#N)ccc1O + C[S+](C)[O-]", "speed of sound [m/s]": 1489.1}
{"Compound": "COc1cc(-c2cc(-c3ccc(O)cc3)[nH]c(=O)c2C#N)ccc1O + C[S+](C)[O-]", "speed of sound [m/s]": 1490.6}

###

- Test Name: mn = molality of the nth substance listed, in mol/kg
- Cond: 318.15 K; 100 kPa; Liquid; Frequency=3 MHz; Sing-around technique in a fixed-path interferometer; m1 = 0.1
Property Measured: speed of sound (m/s)

{"Compound": "COc1cc(-c2cc(-c3ccccc3O)[nH]c(=O)c2C#N)ccc1O + C[S+](C)[O-]", "speed of sound / m/s": 1424.3}
{"Compound": "COc1cc(-c2cc(-c3ccccc3)[nH]c(=O)c2C#N)ccc1O + C[S+](C)[O-]", "speed of sound / m/s": 1423.7}
{"Compound": "COc1cc(-c2cc(-c3ccc(O)cc3)[nH]c(=O)c2C#N)ccc1O + C[S+](C)[O-]", "speed of sound / m/s": 1425.1}
{"Compound": "COc1cc(-c2cc(-c3ccc(Cl)cc3)[nH]c(=O)c2C#N)ccc1O + C[S+](C)[O-]", "speed of sound / m/s": 1424.5}

###

- Test Name: mn = molality of the nth substance listed, in mol/kg
- Cond: 298.15 K; 100 kPa; Liquid; Vibrating tube method; m1 = 0.1
Property Measured: mass density (kg/m3)

{"Compound": "COc1cc(-c2cc(-c3ccc(Cl)cc3)[nH]c(=O)c2C#N)ccc1O + C[S+](C)[O-]", "mass density (kg/m3)": 1102.29}
{"Compound": "COc1cc(-c2cc(-c3ccccc3O)[nH]c(=O)c2C#N)ccc1O + C[S+](C)[O-]", "mass density (kg/m3)": 1101.83}
{"Compound": "COc1cc(-c2cc(-c3ccc(O)cc3)[nH]c(=O)c2C#N)ccc1O + C[S+](C)[O-]", "mass density (kg/m3)": 1101.86}
{"Compound": "COc1cc(-c2cc(-c3ccccc3)[nH]c(=O)c2C#N)ccc1O + C[S+](C)[O-]", "mass density (kg/m3)": 1100.84}

###

- Test Name: mn = molality of the nth substance listed, in mol/kg
- Cond: 318.15 K; 100 kPa; Liquid; Frequency=3 MHz; Sing-around technique in a fixed-path interferometer; m1 = 0.06
Property Measured: speed of sound (m/s)

{"Molecule": "COc1cc(-c2cc(-c3ccccc3)[nH]c(=O)c2C#N)ccc1O + C[S+](C)[O-]", "Output Unit": "m/s", "speed of sound": 1421.6}
{"Molecule": "COc1cc(-c2cc(-c3ccc(Cl)cc3)[nH]c(=O)c2C#N)ccc1O + C[S+](C)[O-]", "Output Unit": "m/s", "speed of sound": 1422.2}
{"Molecule": "COc1cc(-c2cc(-c3ccc(O)cc3)[nH]c(=O)c2C#N)ccc1O + C[S+](C)[O-]", "Output Unit": "m/s", "speed of sound": 1422.7}
{"Molecule": "COc1cc(-c2cc(-c3ccccc3O)[nH]c(=O)c2C#N)ccc1O + C[S+](C)[O-]", "Output Unit": "m/s", "speed of sound": 1422}

###

- Test Name: mn = molality of the nth substance listed, in mol/kg
- Cond: 298.15 K; 100 kPa; Liquid; Vibrating tube method; m1 = 0.01
Property Measured: mass density (kg/m3)

{"Compound": "COc1cc(-c2cc(-c3ccccc3)[nH]c(=O)c2C#N)ccc1O + C[S+](C)[O-]", "mass density [kg/m3]": 1096.02}
{"Compound": "COc1cc(-c2cc(-c3ccc(O)cc3)[nH]c(=O)c2C#N)ccc1O + C[S+](C)[O-]", "mass density [kg/m3]": 1096.12}
{"Compound": "COc1cc(-c2cc(-c3ccccc3O)[nH]c(=O)c2C#N)ccc1O + C[S+](C)[O-]", "mass density [kg/m3]": 1096.09}
{"Compound": "COc1cc(-c2cc(-c3ccc(Cl)cc3)[nH]c(=O)c2C#N)ccc1O + C[S+](C)[O-]", "mass density [kg/m3]": 1096.42}

###

- Test Name: mn = molality of the nth substance listed, in mol/kg
- Cond: 308.15 K; 100 kPa; Liquid; Vibrating tube method; m1 = 0.01
Property Measured: mass density (kg/m3)

{"Compound": "COc1cc(-c2cc(-c3ccccc3O)[nH]c(=O)c2C#N)ccc1O + C[S+](C)[O-]", "mass density / kg/m3": 1086.41}
{"Compound": "COc1cc(-c2cc(-c3ccc(O)cc3)[nH]c(=O)c2C#N)ccc1O + C[S+](C)[O-]", "mass density / kg/m3": 1086.44}
{"Compound": "COc1cc(-c2cc(-c3ccc(Cl)cc3)[nH]c(=O)c2C#N)ccc1O + C[S+](C)[O-]", "mass density / kg/m3": 1086.43}
{"Compound": "COc1cc(-c2cc(-c3ccccc3)[nH]c(=O)c2C#N)ccc1O + C[S+](C)[O-]", "mass density / kg/m3": 1086.02}

###

- Test Name: mn = molality of the nth substance listed, in mol/kg
- Cond: 298.15 K; 100 kPa; Liquid; Capillary tube (Ostwald / Ubbelohde) method; m1 = 0.01
Property Measured: viscosity (mPa·s)

{"Compound": "COc1cc(-c2cc(-c3ccc(O)cc3)[nH]c(=O)c2C#N)ccc1O + C[S+](C)[O-]", "Output Unit": "mPa·s", "viscosity": 1.885}
{"Compound": "COc1cc(-c2cc(-c3ccc(Cl)cc3)[nH]c(=O)c2C#N)ccc1O + C[S+](C)[O-]", "Output Unit": "mPa·s", "viscosity": 1.954}
{"Compound": "COc1cc(-c2cc(-c3ccccc3O)[nH]c(=O)c2C#N)ccc1O + C[S+](C)[O-]", "Output Unit": "mPa·s", "viscosity": 1.88}
{"Compound": "COc1cc(-c2cc(-c3ccccc3)[nH]c(=O)c2C#N)ccc1O + C[S+](C)[O-]", "Output Unit": "mPa·s", "viscosity": 1.876}

###

- Test Name: mn = molality of the nth substance listed, in mol/kg
- Cond: 318.15 K; 100 kPa; Liquid; Vibrating tube method; m1 = 0.06
Property Measured: mass density (kg/m3)

{"Compound": "COc1cc(-c2cc(-c3ccc(O)cc3)[nH]c(=O)c2C#N)ccc1O + C[S+](C)[O-]", "mass density [kg/m3]": 1079.59}
{"Compound": "COc1cc(-c2cc(-c3ccc(Cl)cc3)[nH]c(=O)c2C#N)ccc1O + C[S+](C)[O-]", "mass density [kg/m3]": 1079.89}
{"Compound": "COc1cc(-c2cc(-c3ccccc3)[nH]c(=O)c2C#N)ccc1O + C[S+](C)[O-]", "mass density [kg/m3]": 1078.84}
{"Compound": "COc1cc(-c2cc(-c3ccccc3O)[nH]c(=O)c2C#N)ccc1O + C[S+](C)[O-]", "mass density [kg/m3]": 1079.56}

###

- Test Name: mn = molality of the nth substance listed, in mol/kg
- Cond: 308.15 K; 100 kPa; Liquid; Capillary tube (Ostwald / Ubbelohde) method; m1 = 0.02
Property Measured: viscosity (mPa·s)

{"Molecule": "COc1cc(-c2cc(-c3ccc(Cl)cc3)[nH]c(=O)c2C#N)ccc1O + C[S+](C)[O-]", "Output Unit": "mPa·s", "Number": 1.571}
{"Molecule": "COc1cc(-c2cc(-c3ccccc3)[nH]c(=O)c2C#N)ccc1O + C[S+](C)[O-]", "Output Unit": "mPa·s", "Number": 1.562}
{"Molecule": "COc1cc(-c2cc(-c3ccccc3O)[nH]c(=O)c2C#N)ccc1O + C[S+](C)[O-]", "Output Unit": "mPa·s", "Number": 1.57}
{"Molecule": "COc1cc(-c2cc(-c3ccc(O)cc3)[nH]c(=O)c2C#N)ccc1O + C[S+](C)[O-]", "Output Unit": "mPa·s", "Number": 1.576}
